- tgt: JAK3 (Homo sapiens, UniProt P52333)
- Construct: 781-1124; GST (N); purchased Reaction Biology Corp. (contract assay); host or cells: Baculovirus in Sf21 insect cells
- Sequence (P52333 781-1124): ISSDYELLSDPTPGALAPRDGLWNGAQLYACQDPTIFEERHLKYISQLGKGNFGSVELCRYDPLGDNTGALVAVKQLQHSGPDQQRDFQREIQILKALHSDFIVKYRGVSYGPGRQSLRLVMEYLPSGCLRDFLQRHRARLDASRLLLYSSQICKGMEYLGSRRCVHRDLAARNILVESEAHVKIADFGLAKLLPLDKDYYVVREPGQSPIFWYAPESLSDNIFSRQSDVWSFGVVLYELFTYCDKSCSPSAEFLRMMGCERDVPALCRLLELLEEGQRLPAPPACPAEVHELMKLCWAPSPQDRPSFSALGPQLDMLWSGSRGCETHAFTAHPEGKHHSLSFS
- experimental-protocol: In vitro enzyme inhibition, 33P-ATP filter kinase assay (Reaction Biology)
- Assay type: biochemical
test-readout: IC50 (nM)
// return numeric value only (unit: nM, not printed)

Q) Using the record for NC(=O)c1nc(-c2c(F)cccc2Cl)oc1Nc1ccc(C(=O)N2CCOCC2)cc1 , state its measured IC50.
A) 43.2

Q) For the molecule NC(=O)c1nc(-c2c(F)cccc2Cl)oc1Nc1ccc(C(=O)N[C@@H]2CCCNC2)cc1 , give its measured IC50 value.
A) 167

Q) # return recorded IC50 for input CN1CCC(NC(=O)c2ccc(Nc3oc(-c4c(F)cccc4Cl)nc3C(N)=O)cc2)CC1
A) 132

Q) Note IC50 for the molecule shown: NC(=O)c1nc(-c2c(Cl)cccc2Cl)oc1Nc1ccc(C(=O)N[C@@H]2CCCNC2)cc1
A) 194

Q) Quote IC50 reported for CN1CCC(NC(=O)c2ccc(Nc3oc(-c4c(Cl)cccc4Cl)nc3C(N)=O)cc2)CC1 please.
A) 164

Q) Identify the reported IC50 for the following entry. CCS(=O)(=O)c1ccc(Nc2oc(-c3c(F)cccc3F)nc2C(N)=O)cc1
A) 390

Q) Consider the molecule CC(C)S(=O)(=O)c1ccc(Nc2oc(-c3c(F)cccc3F)nc2C(N)=O)cc1 . State its measured IC50.
A) 516

Q) Report IC50 for NC(=O)c1nc(-c2c(Cl)cccc2Cl)oc1Nc1ccc(C(=O)N[C@H]2CCCNC2)cc1
A) 233

Q) Provide only the value of recorded IC50 for NC(=O)c1nc(-c2c(Cl)cccc2Cl)oc1Nc1ccc(C(=O)N2CCOCC2)cc1
A) 90.8

Q) Supply recorded IC50 for NC(=O)c1nc(-c2c(F)cccc2Cl)oc1Nc1ccc(C(=O)N[C@H]2CCCNC2)cc1 here.
A) 240

====

What IC50 was measured for each of the following?
- tgt: TYK2 kinase (Homo sapiens, UniProt P29597)
- Construct: 833-1187; GST (N); purchased Reaction Biology Corp. (contract assay); host or cells: Baculovirus in Sf21 insect cells
- Sequence (P29597 833-1187): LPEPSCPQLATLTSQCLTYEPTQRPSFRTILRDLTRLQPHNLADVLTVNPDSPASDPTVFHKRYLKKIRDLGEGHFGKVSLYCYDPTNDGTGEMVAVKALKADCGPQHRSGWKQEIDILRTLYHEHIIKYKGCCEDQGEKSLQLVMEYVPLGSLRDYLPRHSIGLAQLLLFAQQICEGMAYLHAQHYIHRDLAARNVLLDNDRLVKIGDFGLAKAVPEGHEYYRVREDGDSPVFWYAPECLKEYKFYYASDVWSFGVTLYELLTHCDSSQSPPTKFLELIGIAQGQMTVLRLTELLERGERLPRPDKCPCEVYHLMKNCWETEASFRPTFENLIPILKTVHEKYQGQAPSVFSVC
- experimental-protocol: In vitro enzyme inhibition, 33P-ATP filter kinase assay (Reaction Biology)
- Assay type: biochemical
Write down the numeric answer in nM and omit the unit.

Q) Determine from records and report IC50 for NC(=O)c1nc(-c2c(F)cccc2Cl)oc1Nc1ccc(C(=O)N2CCOCC2)cc1
A) 0.564

Q) Indicate its recorded IC50; the compound in question is CN1CCC(NC(=O)c2ccc(Nc3oc(-c4c(F)cccc4Cl)nc3C(N)=O)cc2)CC1
A) 2.98

Q) Given the compound CC(C)S(=O)(=O)c1ccc(Nc2oc(-c3c(F)cccc3F)nc2C(N)=O)cc1 , write its reported IC50.
A) 5.47

Q) Determine its reported IC50: NC(=O)c1nc(-c2c(Cl)cccc2Cl)oc1Nc1ccc(C(=O)N[C@@H]2CCCNC2)cc1
A) 1.77

====

Can you tell me IC50 for the items I'm about to list?
- tgt: TYK2 kinase (Homo sapiens, UniProt P29597)
- Construct: 833-1187; GST (N); purchased Reaction Biology Corp. (contract assay); host or cells: Baculovirus in Sf21 insect cells
- experimental-protocol: In vitro enzyme inhibition, 33P-ATP filter kinase assay (Reaction Biology)
- Type: biochemical
Numeric answer only, unit nM assumed.

Q) Answer with IC50 of NC(=O)c1nc(-c2c(Cl)cccc2Cl)oc1Nc1ccc(C(=O)N[C@H]2CCCNC2)cc1 measured for TYK2 kinase (Homo sapiens, UniProt P29597).
A) 1.21

Q) Consider the compound CCS(=O)(=O)c1ccc(Nc2oc(-c3c(F)cccc3F)nc2C(N)=O)cc1 tested on TYK2 kinase (Homo sapiens, UniProt P29597); state its IC50.
A) 4.41

Q) Check TYK2 kinase (Homo sapiens, UniProt P29597) data and give IC50 for CN1CCC(NC(=O)c2ccc(Nc3oc(-c4c(Cl)cccc4Cl)nc3C(N)=O)cc2)CC1 .
A) 1.52

Q) # return IC50 for NC(=O)c1nc(-c2c(F)cccc2Cl)oc1Nc1ccc(C(=O)N[C@@H]2CCCNC2)cc1 , test system: TYK2 kinase (Homo sapiens, UniProt P29597)
A) 5.11

Q) State recorded IC50 with TYK2 kinase (Homo sapiens, UniProt P29597), entry NC(=O)c1nc(-c2c(F)cccc2Cl)oc1Nc1ccc(C(=O)N[C@H]2CCCNC2)cc1 , no comment.
A) 1.89

Q) Recall the reported IC50 of NC(=O)c1nc(-c2c(Cl)cccc2Cl)oc1Nc1ccc(C(=O)N2CCOCC2)cc1 when tested on TYK2 kinase (Homo sapiens, UniProt P29597).
A) 0.617

====

Give measured IC50 for each item. Keep answers brief.
- tgt: JAK2 (Homo sapiens, UniProt O60674)
- Construct: 809-1132; GST (N); '+g'; purchased Reaction Biology Corp. (contract assay); host or cells: Baculovirus in Sf21 insect cells
- Sequence (O60674 809-1132): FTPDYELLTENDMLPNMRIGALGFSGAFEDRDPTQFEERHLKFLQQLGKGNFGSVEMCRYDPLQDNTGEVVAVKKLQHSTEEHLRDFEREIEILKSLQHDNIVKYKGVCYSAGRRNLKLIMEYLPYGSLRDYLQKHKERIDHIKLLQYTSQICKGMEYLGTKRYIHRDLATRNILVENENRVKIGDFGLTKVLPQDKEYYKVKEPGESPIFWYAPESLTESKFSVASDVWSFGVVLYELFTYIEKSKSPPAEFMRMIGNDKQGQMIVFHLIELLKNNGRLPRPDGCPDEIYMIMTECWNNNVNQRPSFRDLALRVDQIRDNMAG
- experimental-protocol: In vitro enzyme inhibition, 33P-ATP filter kinase assay (Reaction Biology)
- Type: biochemical
- Method: Compounds of the invention were assayed for their ability to inhibit TYK2 kinase and other JAK kinases. Substrates and kinases used in the assays are identified in Table 2 below.
Your answer should be a plain number; it is taken to be in nM.

Q) Identify measured IC50 obtained with JAK2 (Homo sapiens, UniProt O60674) for NC(=O)c1nc(-c2c(Cl)cccc2Cl)oc1Nc1ccc(C(=O)N[C@H]2CCCNC2)cc1 .
A) 93.3

Q) Provide IC50, recorded with JAK2 (Homo sapiens, UniProt O60674), of CCS(=O)(=O)c1ccc(Nc2oc(-c3c(F)cccc3F)nc2C(N)=O)cc1
A) 213

Q) Give IC50 for CN1CCC(NC(=O)c2ccc(Nc3oc(-c4c(F)cccc4Cl)nc3C(N)=O)cc2)CC1 tested on JAK2 (Homo sapiens, UniProt O60674).
A) 87.8

Q) Look up and report IC50, with JAK2 (Homo sapiens, UniProt O60674) as system, for CC(C)S(=O)(=O)c1ccc(Nc2oc(-c3c(F)cccc3F)nc2C(N)=O)cc1
A) 153

Q) Provide JAK2 (Homo sapiens, UniProt O60674) IC50 reading for NC(=O)c1nc(-c2c(Cl)cccc2Cl)oc1Nc1ccc(C(=O)N[C@@H]2CCCNC2)cc1 .
A) 122

Q) Give IC50 only, for NC(=O)c1nc(-c2c(F)cccc2Cl)oc1Nc1ccc(C(=O)N[C@H]2CCCNC2)cc1 , using JAK2 (Homo sapiens, UniProt O60674) data.
A) 61.9

Q) Look up and report measured IC50 (JAK2 (Homo sapiens, UniProt O60674)) for the following compound: NC(=O)c1nc(-c2c(F)cccc2Cl)oc1Nc1ccc(C(=O)N[C@@H]2CCCNC2)cc1
A) 125

Q) Provide the reported IC50 (system: JAK2 (Homo sapiens, UniProt O60674)) for CN1CCC(NC(=O)c2ccc(Nc3oc(-c4c(Cl)cccc4Cl)nc3C(N)=O)cc2)CC1
A) 106
